tested on: 616215-338-R-J1-PDC tumor spheroids, viability; assay: Anticancer human tumor 616215-338-R-J1-PDC patient-derived colon adenocarcinoma cell line growth inhibition [GQUAD]; conditions: curve of first compound; second compound 10 µM; spheroids with HUVEC and MSC;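 also: spheroids exposed to agents for 7 days before readout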
pIC50: −log10 of the molar value.
property-label: pIC50

CC1COCCN1c1cc(C2(S(C)(=N)=O)CC2)nc(-c2ccnc3[nH]ccc23)n1 (stereo unspecified) + CN(C)c1ccc(Nc2c3ccc(NC(=O)CCN4CCCC4)cc3nc3cc(NC(=O)CCN4CCCC4)ccc23)cc1 ... 5.46
CC(C)(O)C1CCC(Nc2ccc3ncc(-c4cccc(C(F)(F)F)c4)n3n2)CC1 (stereo unspecified) + Cc1[nH]c2ccc(F)cc2c1-c1nc2c3cccnc3c3ncccc3c2[nH]1 ... 6.25
O=C(NO)c1cnc(N2CCN(S(=O)(=O)c3ccc4ccccc4c3)CC2)nc1 + Cc1[nH]c2ccc(F)cc2c1-c1nc2c3cccnc3c3ncccc3c2[nH]1 ... 6.37
COc1ccc([C@@H](O)c2cc(-c3ncnc4cc(N5CCOCC5)ccc34)c(F)cc2Cl)nn1 + Cc1[nH]c2ccc(F)cc2c1-c1nc2c3cccnc3c3ncccc3c2[nH]1 ... 5.06
C=CCn1c(=O)c2cnc(Nc3ccc(N4CCN(C)CC4)cc3)nc2n1-c1cccc(C(C)(C)O)n1 + CN(C)c1ccc(Nc2c3ccc(NC(=O)CCN4CCCC4)cc3nc3cc(NC(=O)CCN4CCCC4)ccc23)cc1 ... 6.47

Every entry's value here was drawn from PubChem BioAssay AID2060493.
